Listing of entries alongside the reported EC50.
# TEST_SYSTEM: Bombesin receptor subtype-3 (Rattus norvegicus)
# Sequence (Q8K418 whole entry): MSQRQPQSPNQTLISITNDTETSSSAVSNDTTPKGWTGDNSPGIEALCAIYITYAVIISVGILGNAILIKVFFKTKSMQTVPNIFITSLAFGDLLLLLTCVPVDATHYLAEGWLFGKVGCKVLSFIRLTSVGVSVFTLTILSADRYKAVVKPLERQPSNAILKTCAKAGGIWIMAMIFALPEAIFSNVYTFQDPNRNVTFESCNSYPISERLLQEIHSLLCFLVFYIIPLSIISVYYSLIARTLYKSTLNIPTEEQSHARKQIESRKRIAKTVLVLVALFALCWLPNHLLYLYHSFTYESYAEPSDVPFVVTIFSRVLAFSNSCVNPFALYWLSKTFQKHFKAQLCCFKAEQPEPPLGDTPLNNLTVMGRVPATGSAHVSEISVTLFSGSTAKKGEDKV
# ASSAY_EXPLANATION: Agonist activity at rat BRS3 expressed in HEK293AEQ cells after 10 mins by aequorin bioluminescence assay

Would you please look over these solved cases?
MOL_SMILES	TEST_SYSTEM	VALUE_MEASURED
CC(C)(C)CN1CCc2c(c(N3CCCCC3)nc3[nH]nc(N)c23)C1	Bombesin receptor subtype-3 (Rattus norvegicus)	1060 nM
Nc1n[nH]c2nc(N3CCNCC3)c3c(c12)CCN(Cc1ccccc1)C3	Bombesin receptor subtype-3 (Rattus norvegicus)	10000 nM
Nc1n[nH]c2nc(N3CCCCC3)c3c(c12)CCN(Cc1ccc(F)cc1)C3	Bombesin receptor subtype-3 (Rattus norvegicus)	3860 nM
CN1CCN(c2nc3[nH]nc(N)c3c3c2CN(Cc2ccccc2)CC3)CC1	Bombesin receptor subtype-3 (Rattus norvegicus)	10000 nM
Nc1n[nH]c2nc(N3CCCCC3)c3c(c12)CCN(Cc1ccccc1Cl)C3	Bombesin receptor subtype-3 (Rattus norvegicus)	342 nM
Nc1n[nH]c2nc(N3CCC(F)CC3)c3c(c12)CCN(Cc1ccccc1)C3	Bombesin receptor subtype-3 (Rattus norvegicus)	481 nM
CCNc1n[nH]c2nc(N3CCCCC3)c3c(c12)CCN(Cc1ccccc1)C3	Bombesin receptor subtype-3 (Rattus norvegicus)	471 nM
Nc1n[nH]c2nc(N3CCCCC3)c3c(c12)CCN(CCc1ccccc1)C3	Bombesin receptor subtype-3 (Rattus norvegicus)	7910 nM
Nc1n[nH]c2nc(N3CCCCC3)c3c(c12)CCNC3	Bombesin receptor subtype-3 (Rattus norvegicus)	> 10000 nM
Nc1n[nH]c2nc(N3CCCCCCC3)c3c(c12)CCN(Cc1ccccc1)C3	Bombesin receptor subtype-3 (Rattus norvegicus)	10000 nM

Consider now this further compound.
Please give measured EC50 of the following entry: CC(C)(C)C(=O)Nc1n[nH]c2nc(N3CCCCC3)c3c(c12)CCN(Cc1ccccc1)C3
63 nM

Source listed as ChEMBL document CHEMBL1157936.
